Below, each entry is listed alongside its reported minimum inhibitory concentration.
# Tested on: Pasteurella multocida
# test.method.notes: minimum inhibitory concentration (MIC)
# test.parameters: isolate (source animal id): 245

>  <compound>
CNC(C)C1CCC(N)C(OC2C(N)CC(N)C(OC3OCC(C)(O)C(NC)C3O)C2O)O1 (stereo not drawn)

>  <output.unit>
µg/mL

>  <bound.type>
=

>  <minimum inhibitory concentration>
4

$$$$
>  <compound>
CC[C@H]1OC(=O)C[C@@H](O)[C@H](C)[C@@H](O[C@@H]2O[C@H](C)[C@@H](O)[C@H](N(C)C)[C@H]2O)[C@@H](CCN2C[C@H](C)C[C@H](C)C2)C[C@@H](C)C(=O)/C=C/C(C)=C/[C@@H]1CO[C@@H]1O[C@H](C)[C@@H](O)[C@@H](OC)[C@H]1OC

>  <output.unit>
µg/mL

>  <bound.type>
>

>  <minimum inhibitory concentration>
16

$$$$
>  <compound>
CN[C@@H]1[C@H](O)[C@H](NC)[C@H]2O[C@@]3(O)C(=O)C[C@@H](C)O[C@H]3O[C@@H]2[C@H]1O

>  <output.unit>
µg/mL

>  <bound.type>
=

>  <minimum inhibitory concentration>
32

$$$$
>  <compound>
CN(C)[C@@H]1C(O)=C(C(N)=O)C(=O)[C@@]2(O)C(O)=C3C(=O)c4c(O)cccc4[C@@](C)(O)[C@H]3C[C@@H]12

>  <output.unit>
µg/mL

>  <bound.type>
>

>  <minimum inhibitory concentration>
8

$$$$
>  <compound>
CC1(C)S[C@@H]2[C@H](NC(=O)[C@H](N)c3ccccc3)C(=O)N2[C@H]1C(=O)O

>  <output.unit>
µg/mL

>  <bound.type>
≤

>  <minimum inhibitory concentration>
0.25

$$$$
>  <compound>
CS(=O)(=O)c1ccc([C@@H](O)[C@@H](CF)NC(=O)C(Cl)Cl)cc1

>  <output.unit>
µg/mL

>  <bound.type>
=

>  <minimum inhibitory concentration>
0.5

$$$$
>  <compound>
CN1C[C@@H]2C[C@H]1CN2c1cc2c(cc1F)c(=O)c(C(=O)O)cn2C1CC1

>  <output.unit>
µg/mL

>  <bound.type>
>

>  <minimum inhibitory concentration>
1

$$$$
>  <compound>
C=C[C@]1(C)C[C@@H](OC(=O)CSCCN(CC)CC)[C@]2(C)[C@H](C)CC[C@]3(CCC(=O)[C@H]32)[C@@H](C)[C@@H]1O

>  <output.unit>
µg/mL

>  <bound.type>
=

>  <minimum inhibitory concentration>
32

$$$$

---

# System: Mannheimia haemolytica
# test.method.notes: minimum inhibitory concentration (MIC)
# test.parameters: isolate (source animal id): 46
value.type: minimum inhibitory concentration

>  <compound>
COc1cc(Cc2cnc(N)nc2N)cc(OC)c1OC.Cc1cc(NS(=O)(=O)c2ccc(N)cc2)no1

>  <value.type>
minimum inhibitory concentration

>  <experimental.result>
≤ 2 µg/mL

$$$$
>  <compound>
CC1(C)S[C@@H]2[C@H](NC(=O)Cc3ccccc3)C(=O)N2[C@H]1C(=O)O

>  <value.type>
minimum inhibitory concentration

>  <experimental.result>
≤ 0.12 µg/mL

$$$$
>  <compound>
CO/N=C(\C(=O)N[C@@H]1C(=O)N2C(C(=O)O)=C(CSC(=O)c3ccco3)CS[C@H]12)c1csc(N)n1

>  <value.type>
minimum inhibitory concentration

>  <experimental.result>
≤ 0.25 µg/mL

$$$$
>  <compound>
CC[C@H]1OC(=O)C[C@@H](O)[C@H](C)[C@@H](O[C@@H]2O[C@H](C)[C@@H](O)[C@H](N(C)C)[C@H]2O)[C@@H](CCN2CCCCC2)C[C@@H](C)C(=O)/C=C/C(C)=C/[C@@H]1CN1CCCCC1

>  <value.type>
minimum inhibitory concentration

>  <experimental.result>
16 µg/mL

$$$$
>  <compound>
CCCN1C[C@H](C)[C@@H](O)[C@](C)(O)[C@@H](CC)OC(=O)[C@H](C)[C@@H](O[C@H]2C[C@@](C)(OC)[C@@H](O)[C@H](C)O2)[C@H](C)[C@@H](O[C@@H]2O[C@H](C)C[C@H](N(C)C)[C@H]2O)[C@](C)(O)C[C@H]1C

>  <value.type>
minimum inhibitory concentration

>  <experimental.result>
4 µg/mL

$$$$
>  <compound>
CCC[C@@H]1C[C@@H](C(=O)N[C@@H]([C@H]2O[C@H](SC)[C@H](O)[C@@H](O)[C@H]2O)[C@H](C)Cl)N(C)C1

>  <value.type>
minimum inhibitory concentration

>  <experimental.result>
16 µg/mL

$$$$
>  <compound>
COc1cc(NS(=O)(=O)c2ccc(N)cc2)nc(OC)n1

>  <value.type>
minimum inhibitory concentration

>  <experimental.result>
> 256 µg/mL

$$$$
>  <compound>
CNC(C)C1CCC(N)C(OC2C(N)CC(N)C(OC3OCC(C)(O)C(NC)C3O)C2O)O1 (stereo not drawn)

>  <value.type>
minimum inhibitory concentration

>  <experimental.result>
4 µg/mL

$$$$
